The entries below come with measured Akt Inhibition% values attached.
- System: Akt
- procedureSummary: Akt colorimetric in cell ELISA in A549 cells
- Format: cell-based, human
- conditionSet: 24 hours, IC50/4 concentration (9: 1.44; 11: 0.18; 12: 0.20; 14: 0.66; GSK690693: 1.69; Cisplatin: 5.75 µg/mL)
All answers are understood in %, so give the number only.

Below are worked cases with known answers.
# compound, measurement
rows = [
    ("FC(F)(F)c1ccc(C2=Nn3c(CCc4ccc5c(c4)OCO5)nnc3SC2)cc1 [Compound 11]", 0.91),
    ("CS(=O)(=O)c1ccc(C2=Nn3c(CCc4ccc5c(c4)OCO5)nnc3SC2)cc1 [Compound 9]", 15.99),
]

# lookup: Akt Inhibition% of c1ccc(-c2ccc(C3=Nn4c(CCc5ccc6c(c5)OCO6)nnc4SC3)cc2)cc1 [Compound 14]
23.51

Another: CCn1c(-c2nonc2N)nc2c(C#CC(C)(C)O)ncc(OC[C@H]3CCCNC3)c21 [GSK690693, reference compound]
59.23

Another: Fc1cccc(C2=Nn3c(CCc4ccc5c(c4)OCO5)nnc3SC2)c1 [Compound 12]
19.24

Another: N.N.[Cl][Pt][Cl] [Cisplatin, reference compound]
50.46

---

The entries below come with measured Early apoptotic cells% values attached.
- Tested on: A549 cells
- procedureSummary: Annexin V FITC / PI flow cytometry (apoptosis)
- Type: cell-based, human
- conditionSet: 24 hours, IC50 concentrations
- Method: Briefly, after the cells were centrifuged for 4 minutes at 800 rpm, they were washed twice with 1 × PBS and were suspended in the 1 × Annexin-V binding solution at a concentration of 2-3 × 10^6 cell/mL and then 100 µL of the cell solution was transferred into tubes. […] The early and late apoptotic cell percentages were calculated according to positive control.
All answers are understood in %, so give the number only.

# compound, systemUnderTest, measurement
records = [
    ("CS(=O)(=O)c1ccc(C2=Nn3c(CCc4ccc5c(c4)OCO5)nnc3SC2)cc1", "A549 cells", 5.00),
    ("c1ccc(-c2ccc(C3=Nn4c(CCc5ccc6c(c5)OCO6)nnc4SC3)cc2)cc1", "A549 cells", 4.20),
    ("FC(F)(F)c1ccc(C2=Nn3c(CCc4ccc5c(c4)OCO5)nnc3SC2)cc1", "A549 cells", 2.90),
    ("N.N.[Cl][Pt][Cl] [Cisplatin, reference compound]", "A549 cells", 14.70),
]

Please examine the following record next.
# lookup: Early apoptotic cells% of Fc1cccc(C2=Nn3c(CCc4ccc5c(c4)OCO5)nnc3SC2)c1
4.80
